Tested on: rodent lifetime carcinogenesis bioassay, tumor incidence TD50
test method notes: carcinogenic potency in animals, long-term in vivo studies, CPDB compilation (AID 1745844)
run parameters: rat; strain Fischer 344; females; in feed; site: uterus + uterus, endometrium; lesion: leiomyosarcoma + adenocarcinoma, NOS; dosed 104 weeks; study length 105 weeks
assay endpoint: TD50 (mg/kg/day)
Record the value in mg/kg/day, omitting the unit from your answer.

In: Identify measured TD50 associated with "CN(C)NC(=O)CCC(=O)O"
Out: 1840

* * *

Test system: rodent lifetime carcinogenesis bioassay, tumor incidence TD50
test method notes: carcinogenic potency in animals, long-term in vivo studies, CPDB compilation (AID 1745844)
run parameters: mouse; strain C57BL/10J; males; i.p.; site: liver; lesion: hepatocellular adenoma; dosed 35 weeks; study length 59 weeks
assay endpoint: TD50 (mg/kg/day)
Record the value in mg/kg/day, omitting the unit from your answer.

In: Fill: TD50 (rodent lifetime carcinogenesis bioassay, tumor incidence TD50) for this compound "C=COC(N)=O"
Out: 2.69
